biological target: Lysine-specific demethylase 4A (Homo sapiens) (UniProt O75164); assay: qHTS Assay for Inhibitors of JMJD2A-Tudor Domain; conditions: AlphaScreen JMJD2A-Tudor / H3K4me3 peptide binding; series mostly up to 114 µM; also: nearly all actives have a fitted effect of over 50% in size
Sequence (O75164 whole entry, looked up, the tested form may be a part): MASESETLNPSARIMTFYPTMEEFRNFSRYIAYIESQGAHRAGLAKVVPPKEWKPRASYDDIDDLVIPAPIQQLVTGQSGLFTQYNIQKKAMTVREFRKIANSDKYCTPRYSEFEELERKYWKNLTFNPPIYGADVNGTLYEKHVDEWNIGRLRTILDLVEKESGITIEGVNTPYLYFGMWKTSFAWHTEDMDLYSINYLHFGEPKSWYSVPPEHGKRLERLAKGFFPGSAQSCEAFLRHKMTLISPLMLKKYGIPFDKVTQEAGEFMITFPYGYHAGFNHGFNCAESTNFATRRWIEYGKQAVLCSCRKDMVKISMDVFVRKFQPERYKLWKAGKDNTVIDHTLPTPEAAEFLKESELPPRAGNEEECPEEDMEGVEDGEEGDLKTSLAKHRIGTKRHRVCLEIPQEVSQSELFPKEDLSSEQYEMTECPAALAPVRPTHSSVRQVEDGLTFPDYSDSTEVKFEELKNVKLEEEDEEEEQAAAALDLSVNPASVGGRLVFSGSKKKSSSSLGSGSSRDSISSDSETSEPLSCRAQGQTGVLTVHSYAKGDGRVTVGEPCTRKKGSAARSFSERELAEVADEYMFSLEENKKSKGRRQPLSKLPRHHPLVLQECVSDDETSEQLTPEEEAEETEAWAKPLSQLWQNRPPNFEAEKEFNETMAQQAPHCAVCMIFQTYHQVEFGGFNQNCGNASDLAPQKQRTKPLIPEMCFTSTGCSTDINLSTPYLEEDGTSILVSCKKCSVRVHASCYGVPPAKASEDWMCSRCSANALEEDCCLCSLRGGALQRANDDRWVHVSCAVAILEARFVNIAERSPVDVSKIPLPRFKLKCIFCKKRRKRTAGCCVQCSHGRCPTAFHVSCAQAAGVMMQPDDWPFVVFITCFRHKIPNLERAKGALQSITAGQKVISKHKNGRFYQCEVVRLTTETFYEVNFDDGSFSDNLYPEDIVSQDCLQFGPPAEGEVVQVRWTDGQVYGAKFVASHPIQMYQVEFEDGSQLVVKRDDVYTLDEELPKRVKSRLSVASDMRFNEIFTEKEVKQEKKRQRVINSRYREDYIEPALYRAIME
Hit rate of the full screen: of about 390,000 compounds, about 17,000 (4.4%) were called active. Roughly 8% stayed inconclusive and do not appear here. Calls follow the shape of the dose curve; as a rule, active = well fitted inhibition curve with a large enough effect; inconclusive = small, poorly fitted or top-dose-only effect; inactive = no such curve, though single readings can be large or run the other way. Shown is part of a subset that was picked to be rich in actives.
Return exactly one item of active, inactive

- COMPOUND: "CCOc1ccc(C2c3[nH]c4ccccc4c3CCN2Cc2cccn2-c2ncccn2)cc1 (configuration not stated)"
  TARGET: "Lysine-specific demethylase 4A (Homo sapiens) (UniProt O75164)"
  CLASS: "active"
- COMPOUND: "O=C(CCSCc1ccccc1F)N1CCN(c2ccc(Cl)cc2)CC1"
  TARGET: "Lysine-specific demethylase 4A (Homo sapiens) (UniProt O75164)"
  CLASS: "inactive"
- COMPOUND: "Cc1ccccc1N/N=C/c1ccc(N2CCOCC2)cc1"
  TARGET: "Lysine-specific demethylase 4A (Homo sapiens) (UniProt O75164)"
  CLASS: "active"

Look up the recorded call for `Cc1cc(C)n2nc(C(=O)N3CCN(Cc4ccc5c(c4)OCO5)CC3)nc2n1` in this test.
inactive

Kindly provide the recorded test outcome for the following compound: `CC(C)Oc1ccc(CCc2nnc(SCC(=O)O)n2-c2ccccc2)cc1`
inactive

Kindly provide the recorded test outcome for the following compound: `Cc1ccc(C)c(N2CCN(c3ccc4cc(S(=O)(=O)N5CCC(C)CC5)ccc4n3)CC2)c1`
inactive

Record request — test call for `CCOC(=O)c1c(NC(=O)c2cc(CC)on2)sc(C(C)=O)c1C`
inactive

Name the outcome recorded for CCCCN1C(=O)CCC(C(=O)O)C1c1ccc(OC)cc1 (configuration not stated) in the assay.
active

GET /call?item= COc1ccc(NC(=O)C(c2ccccc2)N2Cc3ccccc3C2=O)cc1 (configuration not stated) returns the recorded outcome of this test.
inactive

Check the results log: what was the call for `COc1ccc2c(c1)c(N1CCCC1=O)c(C(=O)Nc1ccccc1C(F)(F)F)n2C` ?
inactive

// return assay outcome for `CC(=O)Oc1ccc(C(C)=O)c2c1OCCO2`
inactive

# lookup: test call for `Cc1ccc(NC(=O)c2nc(S(=O)(=O)Cc3cccc(C)c3)ncc2Cl)cc1`
inactive

Dear all, I need the recorded test outcome for `O=C(c1ccc2c(c1)N(Cc1ccc(F)cc1)C(=O)c1ccccc1S2(=O)=O)N1CCN(c2ccccn2)CC1` , thank you.
inactive

How did this test come out for `CCOC(=O)c1cnc2c(C)cc(C)cc2c1Nc1ccc(N2CCOCC2)cc1` ?
active

Give the logged outcome of this assay for the following compound: COCC(C)N=CC1=C(O)CC(C)(C)CC1=O (configuration not stated)
inactive

Would you mind telling me which call this test gave `CN(CC(=O)Nc1ccc(N2CCOCC2)cc1)CC(=O)Nc1ccccc1[N+](=O)[O-]` ?
inactive

Please indicate how the test categorized `Cc1ccc(CN(C(=O)c2ccccc2[N+](=O)[O-])c2ccccn2)cc1` .
inactive

====

target: Lysine-specific demethylase 4A (Homo sapiens); test: qHTS Assay for Inhibitors of JMJD2A-Tudor Domain; details: AlphaScreen JMJD2A-Tudor / H3K4me3 peptide binding; series mostly up to 114 µM; also: nearly all actives have a fitted effect of over 50% in size; also: potency is read from the fitted curve at half-maximal effect
Among all 390,000 compounds or so, about 17,000 (4.4%) were called active. Not shown: some 8% with an inconclusive outcome. Shown is part of a subset that was picked to be rich in actives.
EXPERIMENTAL ENDPOINT: Potency

Sample records with Potency:
- COMPOUND: "COc1ccc(NC(=O)N2CCC(Cc3ccccc3)CC2)cc1"
  Potency: "inactive"
- COMPOUND: "COc1ccc(NC(=S)NCC2CCN(c3ccc(OC)cc3)C2)cc1 (stereo unspecified)"
  Potency: "35.5 µM (active)"
- COMPOUND: "Cc1ccc(C(=O)Nc2ccccc2F)cc1S(=O)(=O)N1CCOCC1"
  Potency: "inactive"
- COMPOUND: "COc1c(Cl)cc(C(=O)N(Cc2ccccc2F)C2CCS(=O)(=O)C2)cc1Cl (stereo unspecified)"
  Potency: "inactive"
- COMPOUND: "Cc1ccc(Cn2ncc3c4sc(C)cc4n(C)c3c2=O)c(C)c1"
  Potency: "inactive"

Retrieve Potency on Lysine-specific demethylase 4A (Homo sapiens); query `O=C1CSC(=S)N1/N=C/c1ccc(O)c([N+](=O)[O-])c1`
20 µM (active)
